system: T1, TCR gamma/delta constant region (TRGDC) (human, UniProt P0CF51 1-173; B7Z8K6 1-153)
T1 chain (looked up) 1: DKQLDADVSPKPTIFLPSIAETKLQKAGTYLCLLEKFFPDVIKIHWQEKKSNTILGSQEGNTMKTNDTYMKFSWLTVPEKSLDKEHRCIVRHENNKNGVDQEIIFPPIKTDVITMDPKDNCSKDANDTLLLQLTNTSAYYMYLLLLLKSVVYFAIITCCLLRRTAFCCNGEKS
T1 chain (looked up) 2: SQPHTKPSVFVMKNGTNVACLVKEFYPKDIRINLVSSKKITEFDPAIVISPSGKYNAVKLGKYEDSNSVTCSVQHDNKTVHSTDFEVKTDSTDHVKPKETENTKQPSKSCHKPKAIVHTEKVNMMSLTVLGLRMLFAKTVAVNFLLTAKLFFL
measurement.notes: cell-based or functional assay
readout.name: IL6; Luninex (supernatant)
A bare number is all that is needed in reply.

binder	readout.name	number
VG9B136 (antibody, human IgG1, kappa, V domains shown) VH: QVQLQQSGPGLVKPSQTLSLTCAISGDSVSSNRAAWNWIRQSPSKGLEWLGRTYYRSKWYNEYAASVKSRMSINPDTSKNQFSLQLNSVTPEDTALYYCARDLWELREACDIWGQGTMVTVSS VL: DIVMTQSPSFLSTFVGDRVTITCRASQGISSYLAWYQQKPGKVPKLLIYVASTLQSGVPSRFSGSGSGTEFTLTISSLQPEDFATYYCQQLNSYPFTFGPGTKVDIKR	IL6; Luninex (supernatant)	279

**Query** Requested read-out: IL6; Luninex (supernatant). Entry: VG9B386 (antibody, human IgG1, kappa, V domains shown) VH: EVQLVESGGGLVKPGGSLRLSCAASGFTFSSYSMIWVRQAPGKGLEWVSSIGSSSTYIYYADSVRGRFTISRDNAKTSLYLQMNSLRAEDTAMYFCARDGETGGFDYWGQGILVTVSS VL: EIVMTQSPGTLSLSPGERATLSCRASQSISRSYLAWYQQKPGQPPRLLIYGPSNRATGIPDRFSASGSGTDFTLTNSRLEPEDFAVYYCQQYGSLPLTFGGGTKVEIKR
**Result** 228

**Query** I'd like to know its IL6; Luninex (supernatant). The binder in question is VG9B144 (antibody, human IgG1, lambda, V domains shown) VH: QVQLVQSGAEVKKPGASVKVSCKASGYTFTGYYMHWMRQAPGQGLEWMGWINPNSGATNKEQKFQGRVTMTRDTSISTAYMELSRLRSDDTAVYYCAREDDAFDVWGQGTMVTVSS VL: SSELTQDPAVSVALGQTVRITCQGDNLRNYYATWFQQKPGQAPVLVFFGKNNRPSGIPDRFSGSSSGDTASLTITGAQAEDEADYYCNSRDSSGNHVVFGGGTKLTVLG
**Result** 123

**Query** I would be grateful if you could share the reported IL6; Luninex (supernatant) for VG9B125 (antibody, human IgG1, kappa, V domains shown) VH: EVQLVESGGTLVQPGGSLRLSCAVSGFTFSSYDMNWVRQAPGKGLEWVSYISSSSTAKYYADSVKGRFTISRDNAKNSLYLQMNSLWDEDTAVYYCAREDIVVVTPILQHWGQGTTVTVSS VL: EIVMTQSPATLSLSPGERAILSCRASQSVSKDLAWYQQKPGQAPRLLIYDASNRATGIPARISGSGSGTDFTLTISSLEPEDFAVYYCQQRINWPLFTFGPGTKVEIKR .
**Result** 587
